- procedure summary: NCI Yeast Anticancer Drug Screen. Data for the bub3 strain (AID 167)
- measurement setup: S. cerevisiae bub3 mutant strain, at 50.0 µM, stronger effect = higher value
Compounds without any hit were thinned out: in the full panel of roughly 79,000, 15% have a hit.
Returns true if the recorded growth inhibition is greater than or equal to 40%, and false otherwise.

For orientation, consider the following solved cases.
• C[N+]1=C(/C=C\c2ccc(O)c3ccccc23)C(C)(C)c2ccccc21 = false
• CCCc1cc(-c2ccc(O)c(CCC)c2)ccc1O = true
• CCN(CC)CCNc1ccc(C)c2sc3ccc(OC)cc3c(=O)c12 = false
• CCCCCCCCCCCCCCCC(=O)NCC[N+](C)(CC)CC = false
• CCCCCCCCCCCCCCCCCC[N+]1(C)CCC[N+](C)(CCCCCCCCCCCCCCCCCC)CC1 (stereo unspecified) = true

Below: the item to evaluate.
Prompt line: Reported growth inhibition at or above 40%? Cc1ccc(-[n+]2cc([O-])on2)cc1
Response line: false
